Biological target: T1, human TREM2 (triggering receptor expressed on myeloid cells 2) (human) (UniProt Q9NZC2)
T1 sequence (looked up): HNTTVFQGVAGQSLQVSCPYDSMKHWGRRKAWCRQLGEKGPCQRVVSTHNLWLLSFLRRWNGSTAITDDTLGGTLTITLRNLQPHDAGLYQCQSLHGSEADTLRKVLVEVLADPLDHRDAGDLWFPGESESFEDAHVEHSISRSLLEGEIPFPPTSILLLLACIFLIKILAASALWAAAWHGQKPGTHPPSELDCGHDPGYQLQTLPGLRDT
Experiment: 1st screen, 10 nM Ab
reported.metric: Binding Signal (fold over 6E7 parental antibody) (fold)

binder	unit.of.measurement	readout.number
6E7 antibody affinity modulation variant V14 (antibody, V domains shown) VH: EVQLVQSGAEVKKPGESLKISCKGSGYSFGSYWIAWVRQMPGKGLEWMGIIYPGDQDTRYSPSFQGQVTISADKSISTAYLQWSSLKASDTAMYFCARGRTFYYDSSDYFDYWGQGTLVTVSS VL: DIQMTQSPSSVSASVGDRVTITCRASQGISSWLAWYQQKPGKAPKLLIYAASRLQNGVPSRFSGSGSGTDFTLTISSLQPEDFATYFCQQADSFPRTFGQGTKLEIK	fold	4.71
6E7 antibody affinity modulation variant V25 (antibody, V domains shown) VH: EVQLVQSGAEVKKPGESLKISCKGSGYSFGSYWIAWVRQMPGKGLEWMGLIYPGDSDTRYSPSFQGQVTISADKSISTAYLQWSSLKASDTAMYFCARSRTFYYDSSDYFDYWGQGTLVTVSS VL: DIQMTQSPSSVSASVGDRVTITCRASQGISSWLAWYQQKPGKAPKLLIYAASSLANGVPSRFSGSGSGTDFTLTISSLQPEDFATYFCQQADSMPRTFGQGTKLEIK	fold	4.23
6E7 antibody affinity modulation variant V76 (antibody, V domains shown) VH: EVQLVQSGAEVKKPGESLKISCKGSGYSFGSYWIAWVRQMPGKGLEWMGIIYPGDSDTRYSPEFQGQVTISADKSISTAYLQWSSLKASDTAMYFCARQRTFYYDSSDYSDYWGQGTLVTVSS VL: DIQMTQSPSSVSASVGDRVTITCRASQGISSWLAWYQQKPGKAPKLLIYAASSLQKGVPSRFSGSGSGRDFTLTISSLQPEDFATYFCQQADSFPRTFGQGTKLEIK	fold	4.57
